Below: a set of entries, each annotated with reported inhibition.
# Tested On: Protein kinase C theta type (Homo sapiens);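 also: each value is a mean inhibition of PKC-theta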
# Condition Summary: at 1 µM

Compound	Units	inhibition
COc1ccc(-c2nn3ncccc3c2-c2ccnc(Nc3cccc(C(F)(F)F)c3)n2)cc1	%	0.8
CN(C)C(=O)O[C@@H]1CN[C@@H](C#Cc2cc3ncnc(Nc4ccc(OCc5cccc(F)c5)c(Cl)c4)c3s2)C1	%	-1.63
OCc1ccc(-c2nc(-c3ccccn3)c(-c3ccc4c(c3)OCO4)[nH]2)cc1	%	0.86
ON=C1CCc2cc(-c3nc(C4CCNCC4)[nH]c3-c3ccncc3)ccc21	%	1.23
CS(=O)(=O)CCNCc1nc(-c2ccc3ncnc(Nc4ccc(OCc5cccc(C(F)(F)F)c5)cc4)c3c2)cs1	%	0.48
Nc1nccc(-c2c(-c3ccc(F)cc3)ncn2CCCN2CCOCC2)n1	%	3.31
O=C(Nc1ccc(Oc2ccc3[nH]c(NC(=O)c4ccco4)nc3c2)cc1)Nc1cc(C(F)(F)F)ccc1F	%	1.78
NS(=O)(=O)c1cccc(-c2cc3ccncc3cc2OCc2ccccc2)c1	%	1.87
COc1cccc(-n2ncc3c(N/N=C/c4ccc(S(C)(=O)=O)cc4)ncnc32)c1	%	1.19
Cc1ccc(NC(=O)CC2CC2)cc1-c1ccc(C(=O)NCC2CC2)cc1	%	2.23
COc1cc(/C=N/Nc2ncnc3c2cnn3C(C)C)ccc1O	%	4.03
NS(=O)(=O)c1ccc(-c2cc3ccncc3cc2OCc2ccccc2)cc1	%	2.98
Nc1nccc(-c2c(-c3ccc(F)cc3)nn3cc(C(F)(F)F)ccc23)n1	%	-0.16
Cc1ccc(O)cc1Nc1ccnc2ccc(S(C)(=O)=O)cc12	%	7.6
NC(=O)c1cccc(Nc2nccc(Nc3cccc(F)c3)n2)c1	%	0.72
CS(=O)(=O)Nc1cccc(-c2ccc3c(NC(=O)C4CC4)n[nH]c3c2)c1	%	-0.76
CC(C)c1ccc2c(c1)NC(=O)/C2=N/Nc1ccc(S(N)(=O)=O)cc1	%	-0.44
NS(=O)(=O)c1ccc(N/N=C2\C(=O)Nc3ccc(Cl)cc32)cc1	%	4.86
NS(=O)(=O)c1ccc(Nc2cc(-c3cccc(O)c3)n[nH]2)cc1	%	3.2
CCCN1CCCC(c2ccc(Nc3nc(Nc4cc(F)ccc4C(N)=O)c4cc[nH]c4n3)c(OC)c2)C1 (stereo not given)	%	4.89
CCn1c(-c2nonc2N)nc2c(C#CC(C)(C)O)nc(OCCNC)cc21	%	61.1
Cc1cc(O)cc(C)c1/C=C/c1cncc(C(=O)N(C)C)c1	%	0.78
COc1cc2ncnc(Nc3ccc4c(cnn4Cc4ccccc4)c3)c2cc1OC	%	0.99
Cc1ccc(Nc2ccnc(Nc3cccc(C(N)=O)c3)n2)cc1O	%	2.94
CCn1c(-c2nonc2N)nc2ccc(F)cc21	%	6.97
Cc1nc(-c2ccccc2)n2nc(NCCCN3CCOCC3)ncc12	%	-0.08
FC(F)(F)c1ccc(-c2nn3ncccc3c2-c2ccnc(Nc3ccc4c(c3)OCCO4)n2)cc1	%	5.32
Nc1ccc(C#Cc2cncnc2Nc2ccc(OCc3cccc(F)c3)c(Cl)c2)cc1	%	1.13
O=C1Nc2ccccc2/C1=C/Nc1ccc2[nH]c(=O)[nH]c2c1	%	4.75
COc1ccc2ncnc(Nc3ccc(OCc4ccccc4)cc3)c2c1	%	1.19
Cc1ccc2c(c1)/C(=N/Nc1ccc(S(N)(=O)=O)cc1)C(=O)N2	%	-1.65
NC(=O)c1sc(-n2cnc3ccccc32)cc1OCc1ccccc1Br	%	2.63
N#Cc1cccc(Nc2nccc(-c3cnn4ncccc34)n2)c1	%	14.2
CCS(=O)(=O)c1ccc(OC)c(Nc2ncc(-c3cccc(OC)c3)o2)c1	%	0.3
O=C1Nc2ccc(-c3cccnc3)cc2C1=Cc1cc(Br)c(O)c(Br)c1	%	2.57
